# System under test: Adenosine receptor A3 (Homo sapiens); also: assay procedure not described here
# Sequence (P0DMS8 whole entry): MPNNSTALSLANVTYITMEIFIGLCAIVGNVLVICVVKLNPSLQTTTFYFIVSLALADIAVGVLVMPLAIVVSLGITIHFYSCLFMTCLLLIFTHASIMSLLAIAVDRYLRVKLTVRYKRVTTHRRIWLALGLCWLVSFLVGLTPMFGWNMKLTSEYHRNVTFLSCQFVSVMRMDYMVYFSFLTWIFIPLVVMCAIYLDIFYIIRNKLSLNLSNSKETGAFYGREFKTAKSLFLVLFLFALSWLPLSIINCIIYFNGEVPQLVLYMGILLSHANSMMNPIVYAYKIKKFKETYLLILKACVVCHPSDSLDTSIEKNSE

{"Compound": "Clc1ccc(CCCOCCCN2CCCCC2)cc1", "AC50": "> 30 µM"}
{"Compound": "CN1CCC(=C2c3ccccc3CCc3sccc32)CC1", "AC50": "> 30 µM"}
{"Compound": "CC[C@H]1OC(=O)[C@H](C)[C@@H](O[C@H]2C[C@@](C)(OC)[C@@H](O)[C@H](C)O2)[C@H](C)[C@@H](O[C@@H]2O[C@H](C)C[C@H](N(C)C)[C@H]2O)[C@](C)(O)C[C@@H](C)CN(C)[C@H](C)[C@@H](O)[C@]1(C)O", "AC50": "> 30 µM"}
{"Compound": "CC[C@H]1CN2CCc3cc(OC)c(OC)cc3[C@@H]2C[C@@H]1C[C@H]1NCCc2cc(OC)c(OC)cc21", "AC50": "> 30 µM"}
{"Compound": "CC(CC(c1ccccc1)c1ccccc1)NC(C)(C)C (stereo unspecified)", "AC50": "> 30 µM"}
{"Compound": "CC[C@@H](C(N)=O)N1CCCC1=O", "AC50": "> 30 µM"}
{"Compound": "O=[N+]([O-])O[C@@H]1CO[C@H]2[C@@H]1OC[C@@H]2O [ISOSORBIDE MONONITRATE]", "AC50": "> 30 µM"}
{"Compound": "COc1ccc2c3c1O[C@H]1[C@@H](O)C=C[C@H]4[C@@H](C2)N(C)CC[C@@]341", "AC50": "> 30 µM"}
{"Compound": "Nc1nc(Cl)nc2c1ncn2[C@H]1C[C@H](O)[C@@H](CO)O1", "AC50": "> 30 µM"}
{"Compound": "CC(C)C(=O)c1c(C(C)C)nn2ccccc12", "AC50": "> 30 µM"}
{"Compound": "Cc1c(OCC(F)(F)F)ccnc1C[S+]([O-])c1nc2ccccc2[nH]1 (stereo unspecified)", "AC50": "7.77 µM"}
{"Compound": "C[C@H]1COc2c(C3(N)CC3)c(F)cc3c(=O)c(C(=O)O)cn1c23", "AC50": "> 10 µM"}
{"Compound": "N#Cc1ccc([C@H]2CCc3cncn32)c(F)c1", "AC50": "> 10 µM"}
{"Compound": "CCC1(CC)C(=O)NCC(C)C1=O (stereo unspecified)", "AC50": "> 30 µM"}
{"Compound": "O=C(O)CCCCCCNC1c2ccccc2CCc2ccccc21", "AC50": "> 30 µM"}
{"Compound": "NC(=O)CN1CC(O)CC1=O (stereo unspecified)", "AC50": "> 30 µM"}
{"Compound": "CCCSc1ccc2nc(NC(=O)OC)[nH]c2c1", "AC50": "> 30 µM"}
{"Compound": "CC(C)(C)c1cc(C(C)(C)C)c(NC(=O)c2c[nH]c3ccccc3c2=O)cc1O", "AC50": "2.3 µM"}
{"Compound": "CCCC1O[C@@H]2C[C@H]3[C@@H]4CCC5=CC(=O)C=C[C@]5(C)[C@H]4[C@@H](O)C[C@]3(C)[C@]2(C(=O)CO)O1 (stereo partly specified) [BUDESONIDE]", "AC50": "> 10 µM"}
{"Compound": "c1cnc(N2CCN(Cc3ccc4c(c3)OCO4)CC2)nc1", "AC50": "> 30 µM"}
{"Compound": "CN1C(=O)C(O)N=C(c2ccccc2Cl)c2cc(Cl)ccc21 (stereo unspecified)", "AC50": "> 30 µM"}
{"Compound": "Cc1ccc(S(=O)(=O)NC(=O)NN2CC3CCCC3C2)cc1 (stereo unspecified) [GLICLAZIDE]", "AC50": "> 10 µM"}
{"Compound": "CN1C(=O)CCS(=O)(=O)C1c1ccc(Cl)cc1 (stereo unspecified)", "AC50": "> 10 µM"}
{"Compound": "CCCCN1C[C@H](O)[C@@H](O)[C@H](O)[C@H]1CO", "AC50": "> 30 µM"}
{"Compound": "Clc1ccc2nsnc2c1NC1=NCCN1", "AC50": "> 30 µM"}
{"Compound": "CC(C[N+](C)(C)C)OC(N)=O (stereo unspecified)", "AC50": "> 10 µM"}
{"Compound": "CC(C(=O)O)c1ccc(N2Cc3ccccc3C2=O)cc1 (stereo unspecified)", "AC50": "> 30 µM"}
{"Compound": "CCC(C(=O)O)c1ccc(N2Cc3ccccc3C2=O)cc1 (stereo unspecified)", "AC50": "> 30 µM"}
{"Compound": "CC(=O)OCC(=O)[C@@]12N=C(C)O[C@@H]1C[C@H]1[C@@H]3CCC4=CC(=O)C=C[C@]4(C)[C@H]3[C@@H](O)C[C@@]12C", "AC50": "> 30 µM"}
{"Compound": "Cc1cc(C(C)(C)C)c(O)c(C)c1CC1=NCCN1", "AC50": "> 30 µM"}
{"Compound": "C[C@@H]1O[C@@H](O[C@@H]2C=C3CC[C@@H]4[C@H](CC[C@]5(C)[C@@H](c6ccc(=O)oc6)CC[C@]45O)[C@@]3(C)CC2)[C@H](O)[C@H](O)[C@H]1O", "AC50": "> 30 µM"}
{"Compound": "CC(C)=CCC/C(C)=C/C=C/C(C)=C/C=C/C(C)=C/C=C/C=C(C)/C=C/C=C(C)/C=C/C=C(\\C)CCC=C(C)C", "AC50": "> 30 µM"}
{"Compound": "COCCCN1CCC(NC(=O)c2cc(Cl)c(N)c3c2OCC3)CC1 [PRUCALOPRIDE]", "AC50": "> 30 µM"}
{"Compound": "CC[C@@H]1C(=O)OC[C@@H]1Cc1cncn1C", "AC50": "> 30 µM"}
{"Compound": "Cn1nnc2c(C(N)=O)ncn2c1=O [TEMOZOLOMIDE]", "AC50": "> 30 µM"}
{"Compound": "CC(=O)Nc1ccc(O)cc1", "AC50": "> 30 µM"}

====

Target or system Delta-type opioid receptor (Homo sapiens, UniProt P41143); recorded quantity AC50. Also: assay procedure not described here.

{"Molecule": "CC(C[N+](C)(C)C)OC(N)=O (configuration not stated)", "AC50": "> 30 µM"}
{"Molecule": "CC[C@H]1OC(=O)[C@H](C)[C@@H](O[C@H]2C[C@@](C)(OC)[C@@H](O)[C@H](C)O2)[C@H](C)[C@@H](O[C@@H]2O[C@H](C)C[C@H](N(C)C)[C@H]2O)[C@](C)(O)C[C@@H](C)CN(C)[C@H](C)[C@@H](O)[C@]1(C)O", "AC50": "> 10 µM"}
{"Molecule": "CN1CCN(CC/C=C2/c3ccccc3Sc3ccc(S(=O)(=O)N(C)C)cc32)CC1", "AC50": "> 10 µM"}
{"Molecule": "CCCCCCOc1ccccc1C(N)=O [EXALAMIDE]", "AC50": "> 30 µM"}
{"Molecule": "CCC(C)n1ncn(-c2ccc(N3CCN(c4ccc(OCC5COC(Cn6cncn6)(c6ccc(Cl)cc6Cl)O5)cc4)CC3)cc2)c1=O (configuration not stated)", "AC50": "> 30 µM"}
{"Molecule": "Cc1ccc(-c2cc(C(F)(F)F)nn2-c2ccc(S(N)(=O)=O)cc2)cc1", "AC50": "> 30 µM"}
{"Molecule": "CN(C)CC/C=C1\\c2ccccc2CSc2ccccc21 [DOTHIEPIN]", "AC50": "> 30 µM"}

====

Entries with reported AC50 on Beta-2 adrenergic receptor (Homo sapiens, UniProt P07550)
Sequence (P07550 whole entry): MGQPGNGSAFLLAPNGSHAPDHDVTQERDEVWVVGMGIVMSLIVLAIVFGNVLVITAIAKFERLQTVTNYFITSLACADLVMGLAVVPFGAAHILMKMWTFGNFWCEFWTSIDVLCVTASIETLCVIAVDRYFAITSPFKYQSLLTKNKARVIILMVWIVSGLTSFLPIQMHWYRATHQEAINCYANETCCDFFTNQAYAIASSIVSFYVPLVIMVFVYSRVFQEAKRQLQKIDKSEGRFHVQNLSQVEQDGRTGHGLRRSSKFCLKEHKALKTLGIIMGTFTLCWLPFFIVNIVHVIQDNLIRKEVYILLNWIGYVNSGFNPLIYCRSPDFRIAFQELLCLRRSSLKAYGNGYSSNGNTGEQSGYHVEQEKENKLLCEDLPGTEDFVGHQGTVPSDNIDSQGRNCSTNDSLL
Observed property: AC50

{"Molecule": "CC(C)C[C@H]1C(=O)N2CCC[C@H]2[C@]2(O)O[C@](NC(=O)[C@@H]3C=C4c5cccc6[nH]c(Br)c(c56)C[C@H]4N(C)C3)(C(C)C)C(=O)N12", "System under test": "Beta-2 adrenergic receptor (Homo sapiens, UniProt P07550)", "Result": "8.4 µM"}
{"Molecule": "CC(=O)OCC(=O)[C@@]12N=C(C)O[C@@H]1C[C@H]1[C@@H]3CCC4=CC(=O)C=C[C@]4(C)[C@H]3[C@@H](O)C[C@@]12C", "System under test": "Beta-2 adrenergic receptor (Homo sapiens, UniProt P07550)", "Result": "> 30 µM"}
{"Molecule": "CCCC1O[C@@H]2C[C@H]3[C@@H]4CCC5=CC(=O)C=C[C@]5(C)[C@H]4[C@@H](O)C[C@]3(C)[C@]2(C(=O)CO)O1 (some centres undefined) [BUDESONIDE]", "System under test": "Beta-2 adrenergic receptor (Homo sapiens, UniProt P07550)", "Result": "> 10 µM"}
{"Molecule": "Cc1ccc(S(=O)(=O)NC(=O)NN2CC3CCCC3C2)cc1 (centres undefined) [GLICLAZIDE]", "System under test": "Beta-2 adrenergic receptor (Homo sapiens, UniProt P07550)", "Result": "> 10 µM"}

====

# System under test: Muscarinic acetylcholine receptor M2 (Homo sapiens, UniProt P08172); also: assay procedure not described here
# Sequence (P08172 whole entry): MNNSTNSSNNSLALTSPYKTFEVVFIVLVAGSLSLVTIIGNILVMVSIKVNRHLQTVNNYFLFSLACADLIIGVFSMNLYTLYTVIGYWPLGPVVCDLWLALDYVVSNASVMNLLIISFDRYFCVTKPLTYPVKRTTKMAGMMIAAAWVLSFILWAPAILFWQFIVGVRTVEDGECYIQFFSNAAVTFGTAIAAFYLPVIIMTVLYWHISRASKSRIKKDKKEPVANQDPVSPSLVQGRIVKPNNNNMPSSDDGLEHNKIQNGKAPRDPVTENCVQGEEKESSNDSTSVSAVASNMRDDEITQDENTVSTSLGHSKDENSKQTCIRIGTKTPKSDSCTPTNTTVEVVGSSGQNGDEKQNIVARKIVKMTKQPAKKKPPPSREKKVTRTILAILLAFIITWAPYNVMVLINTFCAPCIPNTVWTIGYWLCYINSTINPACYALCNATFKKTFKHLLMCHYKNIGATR
# Type: functional, cell-based

{"Compound": "O=C(Cc1ccc(-c2ccccc2)cc1)Nc1ccccn1 [DIFENPIRAMIDE]", "AC50": "> 30 µM"}
{"Compound": "O=C(O)C[C@H](O)C[C@H](O)/C=C/c1c(C2CC2)nc2ccccc2c1-c1ccc(F)cc1 [PITAVASTATIN]", "AC50": "> 30 µM"}
{"Compound": "CCOC(=O)[C@H](CCc1ccccc1)N[C@@H](C)C(=O)N1[C@H](C(=O)O)C[C@@H]2CCC[C@@H]21", "AC50": "> 10 µM"}
{"Compound": "Cc1oc(=O)oc1CN1CCN(c2cc3c(cc2F)c(=O)c(C(=O)O)c2n3C(C)S2)CC1 (centres undefined) [PRULIFLOXACIN]", "AC50": "> 30 µM"}
{"Compound": "CCOC(=O)[N-]c1cn(N2CCOCC2)n[o+]1 [MOLSIDOMINE]", "AC50": "> 30 µM"}
{"Compound": "CN(C)CCC(c1ccc(Cl)cc1)c1ccccn1 (centres undefined) [CHLORPHENIRAMINE]", "AC50": "> 10 µM"}
{"Compound": "O=C(NCCN1CCOCC1)c1ccc(Cl)cc1 [MOCLOBEMIDE]", "AC50": "> 10 µM"}
{"Compound": "CN1CCN(CC/C=C2/c3ccccc3Sc3ccc(S(=O)(=O)N(C)C)cc32)CC1 [THIOTHIXENE]", "AC50": "> 10 µM"}
{"Compound": "COc1ccc2c3c1O[C@H]1[C@@H](O)C=C[C@H]4[C@@H](C2)N(C)CC[C@@]341 [CODEINE]", "AC50": "> 10 µM"}
